Data origin, for the record: patent US20240300943A1

System: JAK1, 2
Assay: In vitro cell assay, JAK1, 2 (STAT phosphorylation ELISA)
Assay type: cell-based
Details: read-out: IC50, Cell Biology JAK1, 2
pIC50: −log10 of the molar value.
READOUT KIND: pIC50

                              smiles_record  observed_measurement
0  C[C@@H]1CN(C(=O)CC#N)CC=C1c1cc(NC(=O)C2CC2)nc2[nH]ccc12                  7.74

----------
Assay: Physical stability evaluation under stress conditions
Assay type: physicochemical
Conditions: Initial
READOUT KIND: Moisture

>>> print(df.to_string())
                                   compound  observed_measurement
0  C[C@@H]1CN(C(=O)CC#N)CC=C1c1cc(NC(=O)C2CC2)nc2[nH]ccc12 [Example 2]                 3.93%
1  C[C@@H]1CN(C(=O)CC#N)CC=C1c1cc(NC(=O)C2CC2)nc2[nH]ccc12 [Example 1]                 3.33%
2  C[C@@H]1CN(C(=O)CC#N)CC=C1c1cc(NC(=O)C2CC2)nc2[nH]ccc12 [Example 3]                  0.2%
3  C[C@@H]1CN(C(=O)CC#N)CC=C1c1cc(NC(=O)C2CC2)nc2[nH]ccc12 [Example 4]                 0.67%

----------
Assay: Physical stability evaluation under stress conditions
Type: physicochemical
Settings: S2W: 2 weeks at 60° C./80% RH
READOUT KIND: Moisture (%)

>>> print(df.to_string())
                                   compound  observed_measurement
0  C[C@@H]1CN(C(=O)CC#N)CC=C1c1cc(NC(=O)C2CC2)nc2[nH]ccc12 [Example 3]                   0.2
1  C[C@@H]1CN(C(=O)CC#N)CC=C1c1cc(NC(=O)C2CC2)nc2[nH]ccc12 [Example 2]                  3.93

----------
Collected Content (anhydride, as anhydride) values appear next to each entry.
Experiment: Physical stability evaluation under stress conditions
Type: physicochemical
Conditions: S2W: 2 weeks at 60° C./80% RH
READOUT KIND: Content (anhydride, as anhydride) (%)

                                   molecule                       readout_kind  unit_label  observed_measurement
0  C[C@@H]1CN(C(=O)CC#N)CC=C1c1cc(NC(=O)C2CC2)nc2[nH]ccc12 [Example 3]  Content (anhydride, as anhydride)           %                  99.9
1  C[C@@H]1CN(C(=O)CC#N)CC=C1c1cc(NC(=O)C2CC2)nc2[nH]ccc12 [Example 2]  Content (anhydride, as anhydride)           %                 101.4
2  C[C@@H]1CN(C(=O)CC#N)CC=C1c1cc(NC(=O)C2CC2)nc2[nH]ccc12 [Example 4]  Content (anhydride, as anhydride)           %                 101.9
3  C[C@@H]1CN(C(=O)CC#N)CC=C1c1cc(NC(=O)C2CC2)nc2[nH]ccc12 [Example 1]  Content (anhydride, as anhydride)           %                  98.0

----------
Collected Total related material values appear next to each entry.
Assay: Hygroscopicity evaluation
Assay type: physicochemical
Conditions: relative humidity 53%, 4 W
READOUT KIND: Total related material (%)

>>> df
                                   compound  observed_measurement
0  C[C@@H]1CN(C(=O)CC#N)CC=C1c1cc(NC(=O)C2CC2)nc2[nH]ccc12 [Example 4]                  1.04
1  C[C@@H]1CN(C(=O)CC#N)CC=C1c1cc(NC(=O)C2CC2)nc2[nH]ccc12 [Example 3]                  0.35
2  C[C@@H]1CN(C(=O)CC#N)CC=C1c1cc(NC(=O)C2CC2)nc2[nH]ccc12 [Example 1]                  0.78
3  C[C@@H]1CN(C(=O)CC#N)CC=C1c1cc(NC(=O)C2CC2)nc2[nH]ccc12 [Example 2]                  0.59

----------
Assay: Physical stability evaluation under stress conditions
Type: physicochemical
Conditions: Initial
READOUT KIND: Content (anhydride, as anhydride) (%)

>>> df
                                   compound  observed_measurement
0  C[C@@H]1CN(C(=O)CC#N)CC=C1c1cc(NC(=O)C2CC2)nc2[nH]ccc12 [Example 4]                 100.4
1  C[C@@H]1CN(C(=O)CC#N)CC=C1c1cc(NC(=O)C2CC2)nc2[nH]ccc12 [Example 1]                  97.9
2  C[C@@H]1CN(C(=O)CC#N)CC=C1c1cc(NC(=O)C2CC2)nc2[nH]ccc12 [Example 2]                 100.7
3  C[C@@H]1CN(C(=O)CC#N)CC=C1c1cc(NC(=O)C2CC2)nc2[nH]ccc12 [Example 3]                  98.9
